molecular target: holotransducin; assay: cell-based or functional assay
# Lookup of reported Specific counts (Lattice Form) (at 30 min), 35S-GTPyS uptake keyed by entry
Give the quantity in specific counts, number only.

Past entries and their recorded results:
>>> valuemeasured("BR-Rhodopsin loop 3 chimera, Rhodopsin Insert Y223 to R252 (3G) (other) QAQITGRPEWIWLALGTALMGLGTLYFLVKGMGVSDPDAKKFYAITTLVPAIAFTMYLSMLLGYGLTMVPFGGEQNPIYWARYADWLFTTPLLLLDLALLVDADQGTILALVGADGIMIGTGLVGALTKVYSYRFVWWAISTAAMLYILYVLFFGFTYGQLVFTVKEAAAQQQESATTQKAEKEVTRVASTFKVLRNVTVVLWSAYPVVWLIGSEGAGIVPLNIETLLFMVLDVSAKVGFGLILLRSRAIFGEAEAPEPSAGDGAAATSD")
183000
>>> valuemeasured("bacteriorhodopsin (other) QAQITGRPEWIWLALGTALMGLGTLYFLVKGMGVSDPDAKKFYAITTLVPAIAFTMYLSMLLGYGLTMVPFGGEQNPIYWARYADWLFTTPLLLLDLALLVDADQGTILALVGADGIMIGTGLVGALTKVYSYRFVWWAISTAAMLYILYVLFFGFTSKAESMRPEVASTFKVLRNVTVVLWSAYPVVWLIGSEGAGIVPLNIETLLFMVLDVSAKVGFGLILLRSRAIFGEAEAPEPSAGDGAAATSD")
118000

For the next question, use this binder.
Q) Give the reported Specific counts (Lattice Form) (at 30 min), 35S-GTPyS uptake for this binder. BR-Rhodopsin loop 3 chimera, Rhodopsin Insert Y223 to M253 (3C) (other) QAQITGRPEWIWLALGTALMGLGTLYFLVKGMGVSDPDAKKFYAITTLVPAIAFTMYLSMLLGYGLTMVPFGGEQNPIYWARYADWLFTTPLLLLDLALLVDADQGTILALVGADGIMIGTGLVGALTKVYSYRFVWWAISTAAMLYILYVLFFGFTYGQLVFTVKEAAAQQQESATTQKAEKEVTRMVASTFKVLRNVTVVLWSAYPVVWLIGSEGAGIVPLNIETLLFMVLDVSAKVGFGLILLRSRAIFGEAEAPEPSAGDGAAATSD
A) 262000
